Tested on: P. falciparum stage V gametocytes
Parameters: BacTiter-Glo ATP luminescence viability of purified stage V gametocytes in 384-well plates, per cent inhibition versus DMSO
Conditions: 48 h, 5 µM; inhibitor
The whole screen tested about 13,000 compounds, of which about 3,200 (25%) showed an effect of 50% or more. The list shows a part of the results.
Binary call on % Inhibition: TRUE from 40% upward, FALSE beneath that.

Kindly determine if % Inhibition recorded for CN1CCc2cc(I)c(O)cc2C1Cc1ccccc1Cl (centres unmarked) is above or exactly 40%.
FALSE

Kindly determine if % Inhibition recorded for O=C(NCC1CCC(CNCCCc2ccccc2)CC1)Nc1ccc(Cl)c(Cl)c1 (centres unmarked) is above or exactly 40%.
FALSE

Kindly determine if % Inhibition recorded for CS(=O)(=O)c1ccc(-c2cnc(N)c(-c3cccc(CO)c3)c2)cc1 is above or exactly 40%.
FALSE

Kindly determine if % Inhibition recorded for COc1ccc(-c2cnc(N)c(-c3ccc(O)c(OC)c3)c2)cn1 is above or exactly 40%.
FALSE

Kindly determine if % Inhibition recorded for COCc1cccc(-c2cc(-c3ccc(S(C)(=O)=O)cc3)cnc2N)c1 is above or exactly 40%.
FALSE

Kindly determine if % Inhibition recorded for C[C@@H](COc1ccccc1)NCC(O)c1ccc([N+](=O)[O-])c(OCc2ccccc2)c1 (some centres unmarked) is above or exactly 40%.
FALSE

Kindly determine if % Inhibition recorded for COc1ccc(NC(=O)c2ccc(-c3ccc(-c4cccnc4)cc3)c(C)c2)cc1OCCN(C)C is above or exactly 40%.
FALSE

Kindly determine if % Inhibition recorded for Cc1cc(C2CCCCN2C)ccc1-c1ccc(C(=O)N2CCc3cc4c(cc32)C2(CCN(C)CC2)CO4)cc1 (centres unmarked) is above or exactly 40%.
TRUE

Kindly determine if % Inhibition recorded for C[C@H](NC(=O)c1c(CN2CCN(C(=O)C(C)(C)C)CC2)c(-c2cccs2)nc2ccccc12)C1CCCCC1 is above or exactly 40%.
FALSE

Kindly determine if % Inhibition recorded for COc1cc(-c2cc(-c3ccc(S(C)(=O)=O)cc3)cnc2N)ccc1O is above or exactly 40%.
TRUE

Kindly determine if % Inhibition recorded for CS(=O)(=O)c1ccc(-c2cnc(N)c(-c3ccc(O)cc3)c2)cc1 is above or exactly 40%.
FALSE

Kindly determine if % Inhibition recorded for COc1cccc([C@@H](CC(=O)Nc2cc(C(F)(F)F)ccc2OC)Nc2ccc(C#N)c3ccccc23)c1 is above or exactly 40%.
FALSE

Kindly determine if % Inhibition recorded for COC(=O)[C@@H](NC(=O)[C@H](CC(C)C)Nc1ccc(C#N)c2ccccc12)c1ccc(O)cc1 is above or exactly 40%.
TRUE

Kindly determine if % Inhibition recorded for COc1ccc(NC(=O)Nc2cc(C)nc3cccnc23)cc1Cn1ccnc1 is above or exactly 40%.
FALSE

Kindly determine if % Inhibition recorded for COc1cc(-c2cnc(N)c(-c3nc4ccccc4[nH]3)c2)cc(OC)c1OC is above or exactly 40%.
FALSE

Kindly determine if % Inhibition recorded for COC(=O)c1ccc2nc(-c3cc(-c4cccc(-c5ccccc5)c4)cnc3N)[nH]c2c1 is above or exactly 40%.
FALSE

Kindly determine if % Inhibition recorded for CCNC(=O)NC1CCN(Cc2c(-c3cccs3)nc3ccccc3c2C(=O)N[C@@H](C)C2CCCCC2)CC1 is above or exactly 40%.
TRUE

Values were extracted from paper PMC4552634.
